Reference source: patent US8557331B2

assay name: Bioassay for antifouling activity against larval settlement (cyprids, 24-well plate, 24 h)
condition notes: Balanus amphitrite (barnacle, cyprid larvae), in vivo
Protocol: The larvae were reared in freshly filtered natural seawater (FSW, 0.45 μm, 32S salinity) and fed with Chaetoceros gracilis Schutt at 24° C. in the Coastal Marine Laboratory, the Hong Kong University of Science and Technology (HKUST). Larvae that were competent to settle (called cyprids) were stored for 2 days at 8° C. prior to being used in the bioassays. […]
observed property: LC50 at 24 h

IN: Report LC50 at 24 h for O=c1c(-c2ccc(O)cc2)coc2cc(O)cc(O)c12 [Sample F-12, 4′,5,7-trihydroxy-isoflavone] please.
OUT: > 50 µg/mL

###

Tested on: larval settlement of the barnacle Balanus amphitrite
assay name: Bioassay for antifouling activity against larval settlement (cyprids, 24-well plate, 24 h)
condition notes: Table 2; LC50 used is the highest concentration causing <50% death of larvae
observed property: LC50/EC50

Observe how each entry below is paired with its result.
IN: Form field: reported LC50/EC50 of COc1ccc(-c2oc3c(CC=C(C)C)c(O[C@@H]4O[C@H](CO)[C@@H](O)[C@H](O)[C@H]4O)cc(O)c3c(=O)c2O[C@@H]2O[C@@H](C)[C@H](O)[C@@H](O)[C@H]2O)cc1 [Sample F-16, icariin]
OUT: >2.8

IN: Which LC50/EC50 is listed for O=c1cc(-c2ccc(O)cc2)oc2cc(O)cc(O)c12 [Sample F-9, 4′,5,7-trihydroxy-flavone] ?
OUT: >16.1

Proceeding to the next compound to report its LC50/EC50.
IN: Given the entry C[C@@H]1O[C@@H](OC[C@H]2O[C@@H](Oc3c(-c4ccc(O)c(O)c4)oc4cc(O)cc(O)c4c3=O)[C@H](O)[C@@H](O)[C@@H]2O)[C@H](O)[C@H](O)[C@H]1O [Sample F-5, neoisorutin] , report its measured LC50/EC50.
OUT: >5.0
